# systemUnderTest: PD-L1 antigen (ELISA of Example 2) (human, UniProt Q9NZQ7 19-239, limits assumed)
# Sequence (Q9NZQ7 19-239 limits assumed): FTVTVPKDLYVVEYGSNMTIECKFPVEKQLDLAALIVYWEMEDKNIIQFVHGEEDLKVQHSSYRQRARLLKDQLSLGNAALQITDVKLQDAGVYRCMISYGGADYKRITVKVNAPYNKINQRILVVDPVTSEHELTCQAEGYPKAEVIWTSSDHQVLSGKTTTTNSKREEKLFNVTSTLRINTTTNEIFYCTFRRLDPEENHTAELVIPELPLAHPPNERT
# assayDetails: ELISA, signal on PD-L1 antigen
readoutName: ELISA

A = 2LIG29 (VHH, PD-L1 VHH) VHH: QVQLQESGGGLVQTGGSLRLSCAASGFTFSSYGMSWVRQTPGKGPEWVSAIDSGGGSTSYADSVKGRFTISRDNAKNTLYLQMNSLKPEDTAVYYCAQGYYCSGYGCSDYWGQGTQVTVSS
B = 2LIG97 (VHH, PD-L1 VHH) VHH: QVQLQESGGGLVQAGESLRLSCTASGTIFSINRMDWFRQAPGKQRELVALITSDGTPTYADSAKGRFTISRDNTKKTVSLQMNSLKPEDTAVYYCHVSSGVYNYWGQGTQVTVSS
C = 2LIG27 (VHH, PD-L1 VHH) VHH: QVQLQESGGGVVQAGGSLRLSCTASGTIFSINRMDWFRQAPGKQRELVALITSDGTPTYADSAKGRFTISRDNTKKTVSLQMNSLKPEDTAVYYCHVSSGVYNYWGQGTQVTVSS
Asked: Ranking request: ELISA, max to min, items above. A ranking is expressed here by listing the labels in the requested order.
Given back: A, B, C

Attribution: patent US20250361305A1
